From: the supplement of paper PMC10307832

Item-by-item account of relative viability
- Tested on: LC-2-ad
- PROCEDURE_TEXT: relative viability (nuclei count vs DMSO), 5 days (fraction); higher = more cells survive
- CONDITION_SUMMARY: first compound 0.3162 µM
# print the numeric value only

Take a look at these entries with their results.
{"COMPOUND": "O=c1cc(N2CCOCC2)oc2c(-c3cccc4c3sc3ccccc34)cccc12 + NC(=O)Nc1cc(-c2cccc(F)c2)sc1C(=O)N[C@H]1CCCNC1 [AZD7762] (partner 0.2 µM)", "relative viability": 0.817}
{"COMPOUND": "O=c1cc(N2CCOCC2)oc2c(-c3cccc4c3sc3ccccc34)cccc12 + Cc1nc(NC(=O)N2CCC[C@H]2C(N)=O)sc1-c1ccnc(C(C)(C)C(F)(F)F)c1 [Alpelisib] (partner 2 µM)", "relative viability": 0.839}
{"COMPOUND": "CCN(CC)CCCCNc1ncc2cc(-c3cc(OC)cc(OC)c3)c(NC(=O)NC(C)(C)C)nc2n1 + N=C(N)NC(=N)NCCc1ccccc1 [Phenformin] (partner 250 µM)", "relative viability": 0.629}

Can you share its relative viability? I mean this compound: CCN(CC)CCCCNc1ncc2cc(-c3cc(OC)cc(OC)c3)c(NC(=O)NC(C)(C)C)nc2n1 + COc1cc2c(Oc3ccc(NC(=O)C4(C(=O)Nc5ccc(F)cc5)CC4)cc3F)ccnc2cc1OCCCN1CCOCC1 [Foretinib] (partner 0.25 µM)
0.951

Thanks! And O=c1cc(N2CCOCC2)oc2c(-c3cccc4c3sc3ccccc34)cccc12 + Nc1ncn([C@H]2C[C@H](O)[C@@H](CO)O2)c(=O)n1 [Decitabine] (partner 2 µM) ?
0.822

----------
- Tested on: NCI-H1650
- PROCEDURE_TEXT: relative viability (nuclei count vs DMSO), 5 days (fraction); higher = more cells survive
- CONDITION_SUMMARY: first compound 0.03162 µM
This listing pairs compounds with measured relative viability.
No unit in the answer, please; the number alone is enough.

{"COMPOUND": "O=c1cc(N2CCOCC2)oc2c(-c3cccc4c3sc3ccccc34)cccc12 + CCNC(=O)c1noc(-c2cc(C(C)C)c(O)cc2O)c1-c1ccc(CN2CCOCC2)cc1 [Luminespib] (partner 0.01 µM)", "relative viability": 0.169}

Next compound, relative viability to be filled in.
For the compound shown here, CCN(CC)CCCCNc1ncc2cc(-c3cc(OC)cc(OC)c3)c(NC(=O)NC(C)(C)C)nc2n1 + CC(C)C[C@H](NC(=O)[C@H](Cc1ccccc1)NC(=O)c1cnccn1)B(O)O [Bortezomib] (partner 0.002 µM) , give the reported relative viability.
0.217

----------
- System: 201T
- PROCEDURE_TEXT: relative viability (nuclei count vs DMSO), 5 days (fraction); higher = more cells survive
- CONDITION_SUMMARY: first compound 6.325 µM
This listing pairs molecules with measured relative viability.
Answer with a bare number; do not write a unit.

{"MOLECULE": "COCC1(CO)C(=O)C2CCN1CC2 (stereo not drawn) [PRIMA-1MET] + C[C@@H](Oc1cc(-c2cnn(C3CCNCC3)c2)cnc1N)c1c(Cl)ccc(F)c1Cl [Crizotinib] (partner 1 µM)", "relative viability": 1.06}
{"MOLECULE": "COCC1(CO)C(=O)C2CCN1CC2 (stereo not drawn) [PRIMA-1MET] + Cc1nc(NC(=O)N2CCC[C@H]2C(N)=O)sc1-c1ccnc(C(C)(C)C(F)(F)F)c1 [Alpelisib] (partner 2 µM)", "relative viability": 1.05}

Now turn to the next molecule.
What value of measured relative viability is listed for COCC1(CO)C(=O)C2CCN1CC2 (stereo not drawn) [PRIMA-1MET] + CC(=O)Nc1cccc(-n2c(=O)n(C3CC3)c(=O)c3c(Nc4ccc(I)cc4F)n(C)c(=O)c(C)c32)c1 [Trametinib] (partner 0.02 µM) ?
0.749
